Item-by-item account of GI50
Tested on: A549 NSCLC
assay_remarks: NCI tumour cell line growth inhibition, 48 h
property_label: GI50

> print(dat)
                                   molecule    result
1  COC(C(=O)[O][Ge]([CH3])([CH3])[CH3])c1ccccc1 (stereo not given)  > 100 µM
2  CN1CCC(n2cnc(-c3ccc(F)cc3)c2-c2ccnc(NCCO)n2)CC1   11.9 µM
3  CC(CCC(=O)O)[C@H]1CCC2[C@@H]3CC[C@@H]4CC(O)CC[C@]4(C)C3CC[C@@]21C (stereo not given in full)   25.3 µM
4  COC(=O)[C@@]1(C)CC[C@]2(C)CC[C@]3(C)C4=CC=C5C(=CC(=O)C(O)=C5C)[C@]4(C)[C@@H](O)C[C@@]3(C)[C@@H]2C1   15.9 µM
5  COc1ccc(/C(=C2/O[C@@H]([C@H]3COC(C)(C)O3)[C@H]3OC(C)(C)O[C@@H]23)c2cc(OC)c(OC)c(OC)c2)cc1O   22.7 µM

* * *

Tested on: RPMI-8226 leukemia
assay_remarks: NCI tumour cell line growth inhibition, 48 h; in the data active means GI50 below about 0.43 µM; inactive means the rest
Possible outcomes: active, inactive

compound	class_name
N=C(N)c1ccc(-c2ccc(-c3cc(Cl)cc(Cl)c3)o2)nc1	inactive
COC(C(=O)[O][Ge]([CH3])([CH3])[CH3])c1ccccc1 (stereo not drawn)	inactive
O=c1cc(-c2ccccc2)[nH]c2ccccc12	inactive
Oc1cccc2ccc(N/N=C/c3cc(CN4CCCCC4)c(O)c4ncccc34)nc12	active
COc1ccc(OC)c(/C=C2\SC(=S)NC2=O)c1	inactive
Cc1cc(N(CCCl)CCCl)ccc1C=Nc1ccc(-c2csc(Cc3ccccc3)n2)cc1	inactive
COc1cccc2c1c(C(=O)C(=O)Nc1cc(C)no1)cn2Cc1ccc(F)cc1	inactive
COc1cc2c(c(OC)c1)C1c3ccccc3NC(=O)N1CC2 (stereo not drawn)	inactive
CCc1nccc2c1nc(-c1nonc1N)n2CC	inactive
CC[C@@H](C(=O)O)C1CC[C@H](C)C([C@@H](C)[C@H](O)[C@H](C)C(=O)[C@H](CC)C2O[C@]3(C=C[C@@H](O)[C@]4(CC[C@@](C)(C5CC[C@](O)(CC)[C@H](C)O5)O4)O3)[C@H](C)C[C@@H]2C)O1 (stereo partly drawn)	active
CCCC(C)c1cc(Cc2cc(Cl)cc(Cl)c2O)c(O)c(Cc2cc(Cl)cc(Cl)c2O)c1 (stereo not drawn)	active
Nc1nc2c(c3ncncc13)C(c1cccc(C(F)(F)F)c1)Cc1ncncc1-2 (stereo not drawn)	inactive
COc1ccc2sc3c(NCCCN(C)C)nc4ccccc4c3c(=O)c2c1	inactive

* * *

Tested on: SK-MEL-2 melanoma
assay_remarks: NCI tumour cell line growth inhibition, 48 h
property_label: TGI

> print(dat)
                                    molecule  property.label    result
 1  CCCC(=O)OC1C(C(O)CO)OC2OC(C)(C)OC21 (stereo unspecified)             TGI  > 100 µM
 2      CCOC(=O)c1c(N2CCCC2)nsc1Nc1ccc(F)cc1             TGI   46.4 µM
 3  CCOC(=O)c1cc(NS(=O)(=O)c2ccccc2)cc(C(=O)OCC)c1             TGI  > 100 µM
 4  Cc1ccc(-c2cn3ccnc3c(-c3ccc(Cl)cc3)n2)cc1             TGI  > 100 µM
 5               Cc1csc(=S)n1OC(=O)NC1CCCCC1             TGI  > 100 µM
 6  CC(C)[C@H]1CO[C@]2(C)[C@@H]3CN(Cc4ccccc4)C[C@@H]3C(=O)N12             TGI  > 100 µM
 7  O=C(O)/C=C\C(=O)N1C/C(=C\c2ccccc2Cl)C(=O)/C(=C/c2ccccc2Cl)C1             TGI   8.33 µM
 8  CSc1ccc(C2OC(=O)c3ccccc32)c2ccccc12 (stereo unspecified)             TGI  > 100 µM
 9  NC1CC(=O)c2sc(I)cc21 (stereo unspecified)             TGI  > 100 µM
10  Cc1c(/C=N/NC(=O)c2cc(Br)cc(Br)c2O)c(=O)n(-c2ccccc2)n1C             TGI  > 100 µM
11  COc1ccc(OCc2nc3cc(C(F)(F)F)ccc3nc2-c2ccccc2)cc1             TGI  > 100 µM
